Numbers sourced from the supplement of paper PMC10290057.

# Test system: HCT116;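 further: HCT116 colorectal carcinoma cells screened at five concentrations per compound, luminescent viability scaled between DMSO wells and empty wells on each plate, curves fitted per compound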
# assay.summary: AC50 cell viability (CellTiter-Glo); higher = less potent
# particulars: 48 h
observable: AC50 cell viability
Just the number plus its unit, please.

Recorded results for 3 molecules are shown here.
[
  {
    "molecule": "COC(=O)Nc1nc2cc(C(=O)c3ccc(F)cc3)ccc2[nH]1",
    "observable": "AC50 cell viability",
    "measurement": "468 nM"
  },
  {
    "molecule": "COc1cc2ncnc(-n3nc(-c4ccccn4)nc3N)c2cc1OC",
    "observable": "AC50 cell viability",
    "measurement": "4680 nM"
  },
  {
    "molecule": "NC(=O)/C(=C/n1cnc(-c2cc(C(F)(F)F)cc(C(F)(F)F)c2)n1)c1cncnc1 [Eltanexor]",
    "observable": "AC50 cell viability",
    "measurement": "295 nM"
  }
]

Field AC50 cell viability (entry `Cc1cc(OCc2nnc(SC3CCCC3)n2-c2cccnc2)ccc1-c1ccc([S+](C)(=O)[O-])cc1` ) reads 1480 nM
